Values were extracted from patent US9376418B2.

biological target: recombinant human GST-SYK (Homo sapiens, UniProt P43405); construct: purchased Carna Biosciences 08-176; test: Homogeneous Time-Resolved Fluorescence (HTRF) assay for the recombinant human Syk enzyme; assay type: biochemical; settings: HTRF assay, recombinant human GST-SYK; IC50 given as class symbols; read-out: rhSYK Activity
Parameter: IC50

Noted for Cc1cc(Nc2nccc(C(F)(F)F)n2)cc(-c2ccc(N3CCC4(CCCCN4)CC3)nc2)c1 [Example 7.10] : its IC50 reads 100 to 1000 nM

Noted for Cc1cc(Nc2nccc(C(F)(F)F)n2)cc(-c2ccc(NCC(=O)NCC(N)=O)nc2)c1 [Example 12.7] : its IC50 reads < 100 nM

Noted for Cc1cc(Nc2nccc(C(F)(F)F)n2)cc(-c2ccc(N)c(O)n2)c1 [Example 2.10] : its IC50 reads < 100 nM

Noted for CC(=O)Nc1cc(Nc2nccc(C(F)(F)F)n2)cc(-c2ccc(NC(C)(C)C(=O)O)nc2)c1 [Example 7.1] : its IC50 reads < 100 nM

Noted for CC(=O)Nc1cc(Nc2nccc(C(F)(F)F)n2)cc(-c2ccc(N3CCNC(=O)CC3)nc2)c1 [Example 7.4] : its IC50 reads < 100 nM

Noted for Cc1cc(Nc2nccc(C(F)(F)F)n2)cc(-c2ccc(N3CCCC4(CCOC4=O)C3)nc2)c1 (stereo not drawn) [Example 7.14] : its IC50 reads 100 to 1000 nM

Noted for Cc1cc(Nc2nccc(C(F)(F)F)n2)cc(-c2cncc(C3(O)COC3)c2)c1 [Example 9.79] : its IC50 reads < 100 nM

Noted for Cc1cc(Nc2nccc(C(F)(F)F)n2)cc(-c2ccc(Oc3ccc(C(N)=O)cc3)nc2)c1 [Example 12.3] : its IC50 reads 100 to 1000 nM

Noted for Cc1cc(Nc2nccc(C(F)(F)F)n2)cc(-c2cnc(NC(C)(C)C(=O)O)c(C(F)(F)F)c2)c1 [Example 7.123] : its IC50 reads < 100 nM

Noted for Cc1cc(Nc2ncc(F)c(C)n2)cc(-c2ccc(C(C)(O)C3CCC(C(=O)O)CC3)nc2)c1 (single isomer, unassigned) [Example 9.83] : its IC50 reads < 100 nM

Noted for Cc1cc(Nc2nccc(C(F)(F)F)n2)cc(-c2ccc(N[C@H](C)C(=O)O)nc2)c1 [Example 7.154] : its IC50 reads < 100 nM

Noted for FC(F)(F)c1ccnc(Nc2cc(-c3ccccn3)cc(N3CCOCC3)c2)n1 [Example 1.2] : its IC50 reads < 100 nM

Noted for Cc1cc(Nc2nccc(C(F)(F)F)n2)cc(-c2ccc(NC(C)(c3nnn[nH]3)C(C)(C)C)nc2)c1 (stereo not drawn) [Example 18.9] : its IC50 reads < 100 nM

Noted for Cc1cc(Nc2nccc(C(F)(F)F)n2)cc(-c2ccc(N[C@H](Cc3ccccc3)C(=O)O)nc2)c1 [Example 7.96] : its IC50 reads < 100 nM

Noted for Cc1cc(Nc2nccc(C(F)(F)F)n2)cc(-c2ccc(N[C@H](Cc3c[nH]cn3)C(=O)O)nc2)c1 [Example 7.73] : its IC50 reads < 100 nM

---

Field: IC50. Provide a value for each of the compounds that follow.
biological target: recombinant human GST-SYK (Homo sapiens); construct: purchased Carna Biosciences 08-176; test: Homogeneous Time-Resolved Fluorescence (HTRF) assay for the recombinant human Syk enzyme; type: biochemical; conditions: recombinant GST-hSYK, 25 μM ATP, HTRF; read-out: IC50 (inhibition of human Syk activity)
Please respond with the number in nM and leave the unit unwritten.

Noted for CCCOC1CCCN(c2ccc(-c3cc(C)cc(Nc4nccc(C(F)(F)F)n4)c3)cn2)C1 (stereo not shown) [Example 7.63] : its IC50 reads 700

Noted for CC(=O)Nc1cc(Nc2nccc(C(F)(F)F)n2)cc(-c2ccc(NC(C)(C)C(=O)O)nc2)c1 [Example 7.1] : its IC50 reads 3.9

Noted for Cc1cc(Nc2nccc(C(F)(F)F)n2)cc(-c2ccc(C(C)(O)CO)nc2)c1 (stereo not shown) [Example 9.1] : its IC50 reads 17.9

Noted for OC1(c2cccc(-c3cc(Nc4nccc(C(F)(F)F)n4)cc(N4CCOCC4)c3)n2)CCC1 [Example 1.1] : its IC50 reads 144
